All figures here come from ChEMBL document CHEMBL5154769.

- Assay comment: Tmax in BALB/c mouse at 10 mg/kg, ip measured after 24 hrs by LC-MS/MS analysis
- Format: ADME, organism-based
- Condition details: in vivo
Measurement kind: Tmax

Reported Tmax ( `Cc1cc(Cn2c(N3CC4(CNC4)C3)nc3c(N4CCN(CCCCCCCCC(=O)N[C@H](C(=O)N5C[C@H](O)C[C@H]5C(=O)N[C@@H](C)c5ccc(-c6scnc6C)cc5)C(C)(C)C)CC4)cc(Cl)cc32)cc(C)c1F` ) = 15 min

----------
- Assay comment: Observed MRT (infinity) in BALB/c mouse at 10 mg/kg, ip measured after 24 hrs by LC-MS/MS analysis
- Type: ADME, organism-based
- Condition details: in vivo
Measurement kind: MRT inf (h)
The response must be a number in h with no trailing unit.

Reported MRT inf ( `Cc1cc(Cn2c(N3CC4(CNC4)C3)nc3c(N4CCN(CCCCCCCCC(=O)N[C@H](C(=O)N5C[C@H](O)C[C@H]5C(=O)N[C@@H](C)c5ccc(-c6scnc6C)cc5)C(C)(C)C)CC4)cc(Cl)cc32)cc(C)c1F` ) = 10.2
